Cited source for all entries: PubChem BioAssay (NCI)

System: RXF 393 renal
Assay: NCI-60 one-dose screen, 48 h
Conditions: 10 µM unless noted
This is part of a sample that, as a whole, favours compounds with a hit. Of some 83,000 tested, about 20% had one in any assay. The source made the active and inactive calls. The calls were made as follows: active = growth percent below 10; inactive = the rest.
Outcome codes: YES (active), NO (inactive)

molecule: COc1ccc(CN2C(=O)/C(=C\C(=O)c3ccc(OCCN4CCCC4)cc3)c3ccccc32)cc1
assigned class: NO
--
molecule: COc1cc(-c2nn(-c3ccc(NC(=O)c4cc(Cl)cc(Cl)c4)cc3)cc2-c2ccncc2)ccc1Cl
assigned class: YES
--
molecule: CCCCCCCCCC[N+](C)(C)C
assigned class: YES
--
molecule: CC(=O)Oc1cc2ccccc2cc1C(C)C
assigned class: NO
--
molecule: C[C@H]1C[C@@H](n2cnc3c(N)nccc32)[C@H](O)[C@@H]1O
assigned class: YES
--
molecule: C[n+]1c2ccccc2c(Nc2ccc(NS(=O)(=O)CCCCN=C(N)N)cc2)c2ccc(N)cc21
assigned class: NO
--
molecule: CC(=O)OC1CC2C3CCC4C[C@@H](NC(=O)C=C(C)C)CC[C@]4(C)C3CC[C@]2(C)[C@H]1C(C)N(C)C (stereo partly drawn)
assigned class: YES
--
molecule: CC(C)(C)c1ccc([I+]c2ccc(C(C)(C)C)cc2)cc1
assigned class: YES
--
molecule: CCOC(=O)NC1=NCC(C)(C)S1
assigned class: NO
--
molecule: CC1(C)NC(=S)NC1=O
assigned class: NO
--
molecule: CC(C)(C)c1ccc(OCCOC(=O)CBr)cc1
assigned class: NO
--
molecule: C=C(C)C(C(=O)OCC)(C(=O)OCC)C(C)C
assigned class: NO
--
molecule: O=C(NCCO)C(F)(F)F
assigned class: NO
--
molecule: O=c1c2c(c3ccccc3n1-c1ccccc1)NC(=S)NC2c1ccccc1 (stereo not drawn)
assigned class: NO
--
molecule: COCC(=O)NNc1[nH]c(-c2ccc(OC)cc2)cc1C#N
assigned class: NO
--
molecule: COc1ccc(-c2nc(N)n(C(=S)Nc3ccccc3)n2)cc1
assigned class: NO
--
molecule: CN1CCN(Cc2ccc(NC(=O)c3ccc(C#Cc4c(N)ncc5ccc(F)cc45)cc3)cc2C(F)(F)F)CC1
assigned class: YES
--
molecule: O=C(CCCC(=O)Nc1ccc(Cn2nnc3cc(Cl)c(Cl)cc32)cc1)Nc1ccc(CN2N=NC3C=C(Cl)C(Cl)=CC32)cc1 (stereo not drawn)
assigned class: NO
--
molecule: COc1cc2c(c3c1c(=O)c1cccc(F)c1n3C)C=CC(C)(C)O2
assigned class: NO
--
molecule: O=C1/C(=C\c2cn(-c3nc(N4CCOCC4)nc(N4CCOCC4)n3)c3ccccc23)c2ccccc2N1c1c(Cl)cccc1Cl
assigned class: YES
--
molecule: CCCC(=O)NNc1[nH]c(-c2ccc(OC)cc2)cc1C(=O)OCC
assigned class: NO
--
molecule: O=C1Nc2c(c(=O)n(-c3ccccc3)c3ccccc23)C(c2ccc(Cl)cc2)N1 (stereo not drawn)
assigned class: NO
--
molecule: Cc1ncc(C(=O)Nc2ccc(CN3CCN(C)CC3)c(C(F)(F)F)c2)cc1C#Cc1cnc(NC2CC2)c2ncccc12
assigned class: YES
--
molecule: COc1cc(CNC(=O)CCCC/C=C/C(C)C)ccc1OCc1nnc(Nc2ccccc2F)o1
assigned class: NO
--
molecule: O=C(O)/C(Br)=C/c1c[nH]c2ccc(Br)cc12
assigned class: NO
--
molecule: CCCCCCCCCCCCCCCC[n+]1cccc(C#N)c1
assigned class: NO
--
molecule: CCOc1nc(-c2ccccc2)cc2c(O)c(C(=O)N/N=C/c3ccccc3O)[nH]c(=O)c12
assigned class: NO
--
molecule: CC(=O)NCCN
assigned class: NO
--
molecule: CCCOC(=O)c1c(C)n(C)c2scc[n+]12
assigned class: NO
--
molecule: Cc1ccc(NCc2cn(-c3ccc(C(=O)O)cc3)nc2-c2ccc(C(=O)O)cc2)cc1
assigned class: NO
--
molecule: CCCCCC(=C/c1ccccc1)/C=N/N=C(N)N
assigned class: YES
--
molecule: CC(=O)N1CCN(CCNC(=O)n2cc(-c3ccncc3)c(-c3ccc(O)c(Cl)c3)n2)CC1
assigned class: NO
--
molecule: COC(=O)C(C)[C@H]1CC[C@@H]2[C@]1(C)CC=C1[C@]23C=C[C@]2(C[C@@H](OC(C)=O)CC[C@]12C)C(C(=O)OC)C3C(=O)OC (stereo partly drawn)
assigned class: NO
--
molecule: CSC1=Nc2c(c(C)c(-c3ccccc3)n2CCCCl)C2=NC(=O)CN12
assigned class: NO
--
molecule: Clc1ccc(N/N=C(/c2ccccc2)c2ccccn2)nc1
assigned class: NO
--
molecule: COc1ccc(Oc2[nH]n(C3=Nc4ccccc4Sc4ccccc43)c(=O)c2C#N)cc1
assigned class: NO
--
molecule: COc1ccccc1Cn1cc2c(c1)-c1oncc1CC2
assigned class: YES
--
molecule: CC(O)CCC(C)[N+](=O)[O-] (stereo not drawn)
assigned class: NO
--
molecule: COC1NC(Cl)=C(C#N)C(C#N)(C#N)C1(C)C (stereo not drawn)
assigned class: YES
--
molecule: CC(C)CCCCCOC(=O)c1ccccc1SSc1ccccc1C(=O)OCCCCCC(C)C
assigned class: NO
--
molecule: N#Cc1c(N)nc(Nc2nc3ccccc3[nH]2)nc1-c1ccc(Cl)cc1
assigned class: NO
--
molecule: CCOC(=O)C1=C(c2ccccc2)NC(=O)NC1CN1C(=O)c2ccccc2C1=O (stereo not drawn)
assigned class: NO
--
molecule: CC(=O)N1CCN(CCNC(=O)n2cc(-c3ccncc3)c(-c3cc(O)cc(Cl)c3)n2)CC1
assigned class: NO
